Values from patent US20180327503A1

- assay.target: T1, Human IL-7R-hFc antigen (R&D systems) (human, UniProt P16871 21-239)
- T1 construct: Bought from R&D Systems; not shown: human Fc (hFc) of the bought fusion
- T1 sequence (looked up): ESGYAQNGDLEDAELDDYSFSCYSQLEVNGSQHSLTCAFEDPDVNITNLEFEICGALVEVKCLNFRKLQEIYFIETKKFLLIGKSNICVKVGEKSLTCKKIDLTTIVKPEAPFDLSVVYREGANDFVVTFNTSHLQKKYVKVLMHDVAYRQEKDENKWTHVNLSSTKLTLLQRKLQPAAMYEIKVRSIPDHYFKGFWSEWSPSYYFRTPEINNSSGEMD
- assay.method.text: SPR (Biacore 2000/3000), IL-7R-hFc captured on anti-human Fc, antibody as analyte
Overview of recorded kon for various binders

{"binder": "HAL403b Fab (Fab, V domains shown) VH: QVNLRESGGGLVKPGGSLRLSCAASGFTFDDSVMHWVRQAPGKGLEWLSLVGWDGFFTYYADSVKGRFTISRDNTKNLLYLQMNSLRAEDTAVYYCARQGDYMGNNWGQGTLVTVSS VL: NFMLTQPHSVSGSPGKTVTISCTRSSGSIDSSYVQWYQQRPGNSPTTVIYEDDQRPSGVPDRFSGSIDSSSNSASLTISGLVTEDEADYYCMQYDFHHLVFGGGTKLTVLC", "kon, M⁻¹ s⁻¹": "1.39e+06"}
{"binder": "P4B3 Fab (Fab, V domains shown) VH: QVTLKESGGGLVQPGGSLRLSCAASGFTFSNYGMHWVRQAPGKGLEWVSAISGSGGSTYYADSVKGRFTISRDNSKNTVYLQMNSLRDEDTAVYYCARDISGGGMDVWGQGTTVTVSS VL: NFMLTQPHSVSESPGKTVTISCTGSSGRIASSYVQWYQQRPGSAPTTVIYEDNQRPSGVPDRFSGSIDSSSNSASLTISGLKTEDEADYYCQSYASSSLWVFGGGTQLTVLS", "kon, M⁻¹ s⁻¹": 15600}
{"binder": "P2E11 Fab (Fab, V domains shown) VH: QVNLRESGGGLVKPGGSLRLSCAASGFTFDDSVMHWVRQAPGKGLEWLSLVGWDGFFTYYADSVKGRFTISRDNTKNLLYLQMNSLRAEDTAVYYCARQGDYMGDYWGQGTLVTVSS VL: NFMLTQPHSVSGSPGKTVTISCTRSSGSIDSSYVQWYQQRPGNSPTTVIYEDDQRPSGVPDRFSGSIDSSSNSASLTISGLVTEDEADYYCQSYDFHHLVFGGGTKLTVLC", "kon, M⁻¹ s⁻¹": 155000}
{"binder": "P2D2 Fab (Fab, V domains shown) VH: QVNLRESGGGLVKPGGSLRLSCAASGFTFDDSVMHWVRQAPGKGLEWLSLVGWDGFFTYYADSVKGRFTISRDNTKNLLYLQMNSLRAEDTAVYYCARQGDYVFNNWGQGTLVTVSS VL: NFMLTQPHSVSGSPGKTVTISCTRSSGSIDSSYVQWYQQRPGNSPTTVIYEDDQRPSGVPDRFSGSIDSSSNSASLTISGLVTEDEADYYCMQYDSSHLVFGGGTKLTVLC", "kon, M⁻¹ s⁻¹": 71700}
